Here the recorded inhibition at 0.1 µM is given for each entry.
# system_name: Rat Striatal Nicotinic Receptors ([^3H]NIC binding sites; α4β2) (Rattus norvegicus, UniProt P09483+P12390)
# Construct: Whole brain, excluding cortex and cerebellum, was homogenized in 20 vol of ice-cold buffer; from tissue; host or cells: rat brain membranes (whole brain excluding cortex and cerebellum)
# Sequence (P09483 31-630): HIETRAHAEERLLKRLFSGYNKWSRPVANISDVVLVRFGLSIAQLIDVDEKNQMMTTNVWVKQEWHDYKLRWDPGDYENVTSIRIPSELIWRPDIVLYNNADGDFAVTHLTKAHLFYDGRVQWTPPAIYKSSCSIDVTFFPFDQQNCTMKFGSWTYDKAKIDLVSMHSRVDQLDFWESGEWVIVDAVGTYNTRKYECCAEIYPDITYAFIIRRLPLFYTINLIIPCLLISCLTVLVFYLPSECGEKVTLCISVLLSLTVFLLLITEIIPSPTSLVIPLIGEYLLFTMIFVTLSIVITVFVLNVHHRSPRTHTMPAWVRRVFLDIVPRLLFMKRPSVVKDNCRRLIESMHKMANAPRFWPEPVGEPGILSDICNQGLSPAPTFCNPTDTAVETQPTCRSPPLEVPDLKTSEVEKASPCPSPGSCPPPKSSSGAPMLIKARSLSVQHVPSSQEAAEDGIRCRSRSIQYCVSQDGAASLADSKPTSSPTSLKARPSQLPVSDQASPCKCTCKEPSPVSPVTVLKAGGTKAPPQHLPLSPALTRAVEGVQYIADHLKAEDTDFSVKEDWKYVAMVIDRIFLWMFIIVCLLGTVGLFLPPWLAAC
# Sequence (P12390 25-500): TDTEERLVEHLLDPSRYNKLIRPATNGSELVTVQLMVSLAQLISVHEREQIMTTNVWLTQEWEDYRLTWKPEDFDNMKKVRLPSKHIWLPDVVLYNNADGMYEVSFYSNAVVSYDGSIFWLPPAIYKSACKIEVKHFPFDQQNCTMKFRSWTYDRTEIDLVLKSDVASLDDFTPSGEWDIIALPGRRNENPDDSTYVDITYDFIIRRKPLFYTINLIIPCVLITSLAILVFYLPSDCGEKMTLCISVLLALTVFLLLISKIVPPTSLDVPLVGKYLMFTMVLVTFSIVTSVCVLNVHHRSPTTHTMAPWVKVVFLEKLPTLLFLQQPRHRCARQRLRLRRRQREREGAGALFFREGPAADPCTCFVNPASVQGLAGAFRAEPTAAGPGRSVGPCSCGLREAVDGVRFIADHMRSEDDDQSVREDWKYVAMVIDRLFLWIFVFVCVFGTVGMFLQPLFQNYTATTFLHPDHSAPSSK
# assay_protocol: Inhibition of [^3H]NIC binding
# condition_label: 1 h; 100 nM analog; 3 nM [^3H]NIC; nonspecific 10 μM cytisine; rat brain membranes
A number alone suffices; assume %.

OCCCc1ccc[n+](CCOCCOCCOCC[n+]2cccc(CCCO)c2)c1	8.2
Cc1cc[n+](CCCCCc2ccccc2CCCCC[n+]2ccc(C)cc2)cc1	0
Cc1cccc[n+]1CCCCCc1ccccc1CCCCC[n+]1ccccc1C	0
Cc1cc[n+](CC#Cc2ccc(-c3ccc(C#CC[n+]4ccc(C)c(C)c4)cc3)cc2)cc1C	19
C(#Cc1cccc(C#CCCC[n+]2cccc(-c3ccccc3)c2)c1)CCC[n+]1cccc(-c2ccccc2)c1	3.4

Look at this compound and give its reported inhibition at 0.1 µM. "c1cc[n+](CCCCCc2ccccc2CCCCC[n+]2ccccc2)cc1"
3.3

Look at this compound and give its reported inhibition at 0.1 µM. "c1cc(CCCCC[n+]2ccc3ccccc3c2)cc(CCCCC[n+]2ccc3ccccc3c2)c1"
8.8

Look at this compound and give its reported inhibition at 0.1 µM. "Cc1ccc[n+](CCOCCOCCOCC[n+]2cccc(C)c2)c1"
17

Look at this compound and give its reported inhibition at 0.1 µM. "CN1CCC[C@@H]1c1ccc[n+](CCCC#Cc2cccc(C#CCCC[n+]3cccc([C@H]4CCCN4C)c3)c2)c1"
3.1

###

# system_name: Rat Striatal Nicotinic Receptors ([^3H]MLA binding sites; α7) (Rattus norvegicus, UniProt Q05941)
# Construct: Whole brain, excluding cortex and cerebellum, was homogenized in 20 vol of ice-cold buffer; from tissue; host or cells: rat brain membranes (whole brain excluding cortex and cerebellum)
# Sequence (Q05941 23-502): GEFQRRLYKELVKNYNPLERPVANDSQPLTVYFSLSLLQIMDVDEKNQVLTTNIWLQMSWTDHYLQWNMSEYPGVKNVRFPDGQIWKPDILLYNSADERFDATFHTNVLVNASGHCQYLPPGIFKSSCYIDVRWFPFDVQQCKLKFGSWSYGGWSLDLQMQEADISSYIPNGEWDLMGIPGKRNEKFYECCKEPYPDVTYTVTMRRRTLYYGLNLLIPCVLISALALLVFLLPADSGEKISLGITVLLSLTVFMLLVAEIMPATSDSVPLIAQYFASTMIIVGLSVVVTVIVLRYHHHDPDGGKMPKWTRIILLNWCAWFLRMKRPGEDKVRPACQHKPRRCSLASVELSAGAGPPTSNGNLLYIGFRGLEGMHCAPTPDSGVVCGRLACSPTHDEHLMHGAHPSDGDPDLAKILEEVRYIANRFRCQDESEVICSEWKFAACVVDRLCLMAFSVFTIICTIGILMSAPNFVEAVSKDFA
# assay_protocol: Inhibition of [^3H]MLA (methyllycaconitine) binding
# condition_label: 100 nM analog; [^3H]MLA; nonspecific S-nicotine; rat brain membranes; read-out: [^3H]MLA binding, % inhibition
measure: inhibition at 0.1 µM (%)
A number alone suffices; assume %.

As a guide, the following entries are already answered.
Cc1cc[n+](CCCC#Cc2cccc(C#CCCC[n+]3ccc(C)cc3C)c2)c(C)c1	5.5
Cc1ccc[n+](CCCCCc2ccccc2CCCCC[n+]2cccc(C)c2)c1	5.4
Cc1cccc[n+]1CCCCCc1ccccc1CCCCC[n+]1ccccc1C	7.6

Look at this compound and give its reported inhibition at 0.1 µM. "Cc1cc(C)c[n+](CCCC/C=C\C=C/CCCC[n+]2cc(C)cc(C)c2)c1"
0

Look at this compound and give its reported inhibition at 0.1 µM. "Cc1cc(C)c[n+](CCCC#Cc2ccccc2C#CCCC[n+]2cc(C)cc(C)c2)c1"
5

Look at this compound and give its reported inhibition at 0.1 µM. "C(#Cc1cccc(C#CCCC[n+]2ccccc2)c1)CCC[n+]1ccccc1"
4.4

Look at this compound and give its reported inhibition at 0.1 µM. "OCCCc1ccc[n+](CCCc2ccc(-c3ccc(CCC[n+]4cccc(CCCO)c4)cc3)cc2)c1"
5.8

Look at this compound and give its reported inhibition at 0.1 µM. "Cc1cc[n+](CCCC#Cc2cccc(C#CCCC[n+]3ccc(C)cc3)c2)cc1"
6.4

###

# system_name: Rat Striatal Nicotinic Receptors ([^3H]NIC binding sites; α4β2) (Rattus norvegicus, UniProt P09483+P12390)
# Construct: Whole brain, excluding cortex and cerebellum, was homogenized in 20 vol of ice-cold buffer; from tissue; host or cells: rat brain membranes (whole brain excluding cortex and cerebellum)
# assay_protocol: Inhibition of [^3H]NIC binding
# condition_label: full concentration effect; 3 nM [^3H]NIC; nonspecific 10 μM cytisine; rat brain membranes; read-out: [^3H]NIC binding, Ki
Here the recorded pKi is given for each entry.
Entry type: numeric. Quantity: pKi, the -log10 of concentration in molar units.

Look at this compound and give its reported pKi. C(#Cc1ccc(C#CCC[n+]2ccc3c(c2)CCCC3)cc1)CC[n+]1ccc2c(c1)CCCC2 [Example 99]
5.09

Look at this compound and give its reported pKi. C(/C=C\CCCC[n+]1cccc2c1CCCC2)=C/CCCC[n+]1cccc2c1CCCC2 [Example 5]
5.44

Look at this compound and give its reported pKi. C(/C=C\CCCC[n+]1ccc2c(c1)CCCC2)=C/CCCC[n+]1ccc2c(c1)CCCC2 [Example 6]
5.23

###

# system_name: Rat Striatal Nicotinic Receptors ([^3H]NIC binding sites; α4β2) (Rattus norvegicus, UniProt P09483+P12390)
# Construct: Whole brain, excluding cortex and cerebellum, was homogenized in 20 vol of ice-cold buffer; from tissue; host or cells: rat brain membranes (whole brain excluding cortex and cerebellum)
# assay_protocol: Inhibition of [^3H]NIC binding
# condition_label: full concentration effect; 3 nM [^3H]NIC; nonspecific 10 μM cytisine; rat brain membranes; read-out: [^3H]NIC binding, Ki
pKi: −log10 of the molar value.
measure: pKi

Cc1ccc[n+](CCCC/C=C\C=C/CCCC[n+]2cccc(C)c2)c1 [Example 3]	< 4.00

Look at this molecule and give its reported pKi. Cc1ccc[n+](CCCCc2ccc(CCCC[n+]3cccc(C)c3)cc2)c1 [Example 12]
< 4.00

Look at this molecule and give its reported pKi. c1cc(CCCC[n+]2ccc3c(c2)CCCC3)ccc1CCCC[n+]1ccc2c(c1)CCCC2 [Example 16]
< 4.00

Look at this molecule and give its reported pKi. Cc1cc[n+](CCCCc2ccc(CCCC[n+]3ccc(C)cc3)cc2)cc1 [Example 13]
< 4.00

###

Here the recorded inhibition at 0.1 µM is given for each entry.
# system_name: Rat Striatal Nicotinic Receptors ([^3H]NIC binding sites; α4β2) (Rattus norvegicus, UniProt P09483+P12390)
# Construct: Whole brain, excluding cortex and cerebellum, was homogenized in 20 vol of ice-cold buffer; from tissue; host or cells: rat brain membranes (whole brain excluding cortex and cerebellum)
# assay_protocol: Inhibition of [^3H]NIC binding
# condition_label: 1 h; 100 nM analog; 3 nM [^3H]NIC; nonspecific 10 μM cytisine; rat brain membranes
A number alone suffices; assume %.

As a guide, the following entries are already answered.
Cc1ccc[n+](CCCC#Cc2cccc(C#CCCC[n+]3cccc(C)c3)c2)c1 [Example 49]	0.5
Cc1cc[n+](CCCCCc2cccc(CCCCC[n+]3ccc(C)c(C)c3)c2)cc1C [Example 66]	10.5
OCc1ccc[n+](CCOCCOCCOCC[n+]2cccc(CO)c2)c1 [Example 87]	8.2

Look at this molecule and give its reported inhibition at 0.1 µM. Cc1cc(C)c[n+](CCCCc2ccc(CCCC[n+]3cc(C)cc(C)c3)cc2)c1 [Example 20]
1

Look at this molecule and give its reported inhibition at 0.1 µM. c1cc2c([n+](CCOCCOCCOCC[n+]3cccc4c3CCCC4)c1)CCCC2 [Example 84]
0

Look at this molecule and give its reported inhibition at 0.1 µM. OCCCc1ccc[n+](CCCCc2ccc(CCCC[n+]3cccc(CCCO)c3)cc2)c1 [Example 17]
0

Look at this molecule and give its reported inhibition at 0.1 µM. CCCCc1ccc[n+](CCCC#Cc2cccc(C#CCCC[n+]3cccc(CCCC)c3)c2)c1 [Example 57]
3.5

Look at this molecule and give its reported inhibition at 0.1 µM. c1ccc(CCCCC[n+]2cccc3ccccc32)c(CCCCC[n+]2cccc3ccccc32)c1 [Example 40]
0

Look at this molecule and give its reported inhibition at 0.1 µM. Cc1cc[n+](CCCC#Cc2cccc(C#CCCC[n+]3ccc(C)c(C)c3)c2)cc1C [Example 52]
11

Look at this molecule and give its reported inhibition at 0.1 µM. Cc1cc[n+](CCOCCOCCOCC[n+]2ccc(C)cc2)cc1 [Example 83]
15

Look at this molecule and give its reported inhibition at 0.1 µM. Cc1cc[n+](CCC#Cc2ccc(C#CCC[n+]3ccc(C)c(C)c3)cc2)cc1C [Example 100]
3

Look at this molecule and give its reported inhibition at 0.1 µM. CCCCc1ccc[n+](CCCCCc2ccccc2CCCCC[n+]2cccc(CCCC)c2)c1 [Example 43]
0.8

Look at this molecule and give its reported inhibition at 0.1 µM. c1cc(CCCCC[n+]2cccc3ccccc32)cc(CCCCC[n+]2cccc3ccccc32)c1 [Example 68]
8.3

###

# system_name: Rat Striatal Nicotinic Receptors ([^3H]MLA binding sites; α7) (Rattus norvegicus, UniProt Q05941)
# Construct: Whole brain, excluding cortex and cerebellum, was homogenized in 20 vol of ice-cold buffer; from tissue; host or cells: rat brain membranes (whole brain excluding cortex and cerebellum)
# assay_protocol: Inhibition of [^3H]MLA (methyllycaconitine) binding
# condition_label: 100 nM analog; [^3H]MLA; nonspecific S-nicotine; rat brain membranes; read-out: [^3H]MLA binding, % inhibition
Here the recorded inhibition at 0.1 µM is given for each entry.
A number alone suffices; assume %.

Look at this molecule and give its reported inhibition at 0.1 µM. "Cc1cc[n+](CCCC#Cc2cccc(C#CCCC[n+]3ccc(C)c(C)c3)c2)cc1C"
3.3

Look at this molecule and give its reported inhibition at 0.1 µM. "c1ccc(CCCCC[n+]2ccc3ccccc3c2)c(CCCCC[n+]2ccc3ccccc3c2)c1"
0

Look at this molecule and give its reported inhibition at 0.1 µM. "Cc1cc[n+](CCCCCc2cccc(CCCCC[n+]3ccc(C)cc3)c2)cc1"
3.5

Look at this molecule and give its reported inhibition at 0.1 µM. "Cc1cc[n+](CC#Cc2ccc(-c3ccc(C#CC[n+]4ccc(C)cc4)cc3)cc2)cc1"
12

Look at this molecule and give its reported inhibition at 0.1 µM. "CCCCc1ccc[n+](CCCCCc2ccccc2CCCCC[n+]2cccc(CCCC)c2)c1"
5.5
